Data origin, for the record: patent US6897209B2

Experiment: Normal rat biodistribution
Assay type: in vivo
Conditions: 30 min post-injection, i.v., male Wistar rats, Mean±SD n=3
Procedure: The resolution of a clot image is dependant on the combination of rate of incorporation of the radiopharmaceutical and its blood/tissues clearance rate. For this reason the biodistribution of several compounds has been determined in rats. Male Wistar (100-150 g) rats were injected i.v. with 0.1-0.2 ml of radiolabelled tracer solution (8 MBq/ml) and dissected at different times post-injection. The % ID in each of the selected tissues was measured. […]
Entries and their measured % ID Blood follow.
Express your answer in % ID, writing the number without its unit.

// below: answered compounds
compound="CC(=NO)C(C)(C)NCC(C)(CNC(=O)c1ccc(S(=O)(=O)NCCCCCN)cc1)CNC(C)(C)C(C)=NO (stereo not drawn)" test_value=0.59
compound="CC(=NO)C(C)(C)NCC(C)(CNC(=O)C1CCC(CNC(=O)c2ccc(S(=O)(=O)NCCCCCN)cc2)CC1)CNC(C)(C)C(C)=NO (stereo not drawn)" test_value=0.55

Here's the next entry for you.
Param item = CC(=NO)C(C)(C)NCC(C)(CNC(=O)CCCCCN)CNC(C)(C)C(C)=NO (stereo not drawn) ; retrieve measured % ID Blood.
0.98

----------
Assay: Normal rat biodistribution
Assay type: in vivo
Settings: 60 min post-injection, i.v., male Wistar rats, Mean±SD n=3
Recorded measurements of % ID Blood, one per entry
# number only, unit % ID dropped from output

The following compounds have reported results that may help.
compound=NCCCCCNS(=O)(=O)c1ccc(C(=O)NCCCNC(=O)c2ccc(NN)nc2)cc1 test_value=1.6
compound=CC(=NO)C(C)(C)NCCN(CCNC(=O)c1ccc(S(=O)(=O)NCCCCCN)cc1)CCNC(C)(C)C(C)=NO test_value=0.38

Shift focus to the following entry.
// lookup % ID Blood for CC(=NO)C(C)(C)NCC(C)(CNC(=O)c1ccc(S(=O)(=O)NCCCCCN)cc1)CNC(C)(C)C(C)=NO (stereo not shown)
0.31

----------
Assay: Normal rat biodistribution
Type: in vivo
Details: 60 min post-injection, i.v., male Wistar rats, Mean±SD n=3
I would appreciate it if you labelled entries Criterion met when % ID Urine is 20 % ID or higher, otherwise Criterion not met.

// known answers, use as guide
compound=CC(=NO)C(C)(C)NCCN(CCNC(=O)c1ccc(S(=O)(=O)NCCCCCN)cc1)CCNC(C)(C)C(C)=NO label_value="Criterion met"
compound="CC(=NO)C(C)(C)NCC(C)(CNC(=O)C1CCC(CNC(=O)c2ccc(S(=O)(=O)NCCCCCN)cc2)CC1)CNC(C)(C)C(C)=NO (stereo not shown)" label_value="Criterion not met"
compound="CC(=NO)C(C)(C)NCCN(CCNC(=O)C1CCC(CNC(=O)c2ccc(S(=O)(=O)NCCCCCN)cc2)CC1)CCNC(C)(C)C(C)=NO (stereo not shown)" label_value="Criterion met"
compound=NCCCCCNS(=O)(=O)c1ccc(C(=O)NCCCNC(=O)c2ccc(NN)nc2)cc1 label_value="Criterion met"

Is % ID Urine at least 20 % ID? Consider CC(CNCc1ccccc1O)(CNCc1ccccc1O)CNC(=O)c1ccc(S(=O)(=O)NCCCCCN)cc1
Criterion not met

Is it the case that CC(=NO)C(C)(C)NCC(C)(CNC(=O)c1ccc(S(=O)(=O)NCCCCCN)cc1)CNC(C)(C)C(C)=NO (stereo not shown) has % ID Urine reaching or exceeding 20 % ID?
Criterion not met

Check the entry CC(=NO)C(C)(C)NCC(C)(CNC(=O)CCCCCN)CNC(C)(C)C(C)=NO (stereo not shown) : does % ID Urine equal or exceed 20 % ID?
Criterion not met

----------
Test: Normal rat biodistribution
Type: in vivo
Conditions: 15 min post-injection, i.v., male Wistar rats, Mean±SD n=3
Readout label: % ID Lung (% ID)
Please respond with the number in % ID and leave the unit unwritten.

These recorded examples may help you get a feel for the data.
compound="CC(CNCc1ccccc1O)(CNCc1ccccc1O)CNC(=O)c1ccc(S(=O)(=O)NCCCCCN)cc1 [Compound 25]" readout_label="% ID Lung" test_value=1.37
compound="CC(=NO)C(C)(C)NCC(C)(CNC(=O)c1ccc(S(=O)(=O)NCCCCCN)cc1)CNC(C)(C)C(C)=NO (centres unmarked) [Compound 3]" readout_label="% ID Lung" test_value=0.23
compound="CC(=NO)C(C)(C)NCCN(CCNC(=O)C1CCC(CNC(=O)c2ccc(S(=O)(=O)NCCCCCN)cc2)CC1)CCNC(C)(C)C(C)=NO (centres unmarked) [Compound 17]" readout_label="% ID Lung" test_value=0.9
compound="CC(=NO)C(C)(C)NCC(C)(CNC(=O)C1CCC(CNC(=O)c2ccc(S(=O)(=O)NCCCCCN)cc2)CC1)CNC(C)(C)C(C)=NO (centres unmarked) [Compound 8]" readout_label="% ID Lung" test_value=0.21

Now for a further compound.
Please look up its % ID Lung: NCCCCCNS(=O)(=O)c1ccc(C(=O)NCCCNC(=O)c2ccc(NN)nc2)cc1 [Compound 24]
0.78

----------
Assay: Normal rat biodistribution
Type: in vivo
Details: 240 min post-injection, i.v., male Wistar rats, Mean±SD n=3
Readout label: % ID Lung (% ID)
Entry rule: numbers only, all in % ID.

Some molecules with recorded % ID Lung:
molecule="CC(=NO)C(C)(C)NCC(C)(CNC(=O)CCCCCN)CNC(C)(C)C(C)=NO (stereo not shown)" endpoint_unit="% ID" test_value=0.06
molecule=CC(CNCc1ccccc1O)(CNCc1ccccc1O)CNC(=O)c1ccc(S(=O)(=O)NCCCCCN)cc1 endpoint_unit="% ID" test_value=0.21
molecule=CC(=NO)C(C)(C)NCCN(CCNC(=O)c1ccc(S(=O)(=O)NCCCCCN)cc1)CCNC(C)(C)C(C)=NO endpoint_unit="% ID" test_value=0.04

I am curious: what % ID Lung value has been reported for CC(=NO)C(C)(C)NCCN(CCNC(=O)C1CCC(CNC(=O)c2ccc(S(=O)(=O)NCCCCCN)cc2)CC1)CCNC(C)(C)C(C)=NO (stereo not shown) ?
0.1

----------
Assay: Normal rat biodistribution
Type: in vivo
Details: 30 min post-injection, i.v., male Wistar rats, Mean±SD n=3
Reported % ID Liver values for the following compounds.
Quick reminder: number only, in % ID, skip the unit.

Below, each entry is followed by its recorded % ID Liver result.
compound="CC(=NO)C(C)(C)NCC(C)(CNC(=O)c1ccc(S(=O)(=O)NCCCCCN)cc1)CNC(C)(C)C(C)=NO (stereo not shown) [Compound 3]" readout_label="% ID Liver" endpoint_unit="% ID" test_value=1.95
compound="CC(=NO)C(C)(C)NCC(C)(CNC(=O)C1CCC(CNC(=O)c2ccc(S(=O)(=O)NCCCCCN)cc2)CC1)CNC(C)(C)C(C)=NO (stereo not shown) [Compound 8]" readout_label="% ID Liver" endpoint_unit="% ID" test_value=4.53
compound="CC(=NO)C(C)(C)NCCN(CCNC(=O)c1ccc(S(=O)(=O)NCCCCCN)cc1)CCNC(C)(C)C(C)=NO [Compound 16]" readout_label="% ID Liver" endpoint_unit="% ID" test_value=5.15
compound="CC(=NO)C(C)(C)NCCN(CCNC(=O)C1CCC(CNC(=O)c2ccc(S(=O)(=O)NCCCCCN)cc2)CC1)CCNC(C)(C)C(C)=NO (stereo not shown) [Compound 17]" readout_label="% ID Liver" endpoint_unit="% ID" test_value=2.94
compound="NCCCCCNS(=O)(=O)c1ccc(C(=O)NCCCNC(=O)c2ccc(NN)nc2)cc1 [Compound 24]" readout_label="% ID Liver" endpoint_unit="% ID" test_value=3.67

Bench note: what % ID Liver did CC(CNCc1ccccc1O)(CNCc1ccccc1O)CNC(=O)c1ccc(S(=O)(=O)NCCCCCN)cc1 [Compound 25] show?
9.66

Look at this compound and give its reported % ID Liver. CC(=NO)C(C)(C)NCC(C)(CNC(=O)CCCCCN)CNC(C)(C)C(C)=NO (stereo not shown) [Compound 4]
5.06

----------
Assay: Normal rat biodistribution
Format: in vivo
Settings: 240 min post-injection, i.v., male Wistar rats, Mean±SD n=3
Readout label: % ID Kidney (% ID)
Only the number, expressed in % ID, is required.

compound="CC(=NO)C(C)(C)NCC(C)(CNC(=O)c1ccc(S(=O)(=O)NCCCCCN)cc1)CNC(C)(C)C(C)=NO (stereo not drawn)" endpoint_unit="% ID" test_value=0.45
compound="CC(=NO)C(C)(C)NCC(C)(CNC(=O)CCCCCN)CNC(C)(C)C(C)=NO (stereo not drawn)" endpoint_unit="% ID" test_value=1.51

# input compound: CC(=NO)C(C)(C)NCCN(CCNC(=O)c1ccc(S(=O)(=O)NCCCCCN)cc1)CCNC(C)(C)C(C)=NO ; wanted: its % ID Kidney
1.06

----------
Assay: Normal rat biodistribution
Assay type: in vivo
Conditions: 60 min post-injection, i.v., male Wistar rats, Mean±SD n=3
Readout label: % ID Kidney (% ID)
I only need the number, in % ID, no unit after it.

Worked cases, % ID Kidney given:
molecule="CC(=NO)C(C)(C)NCC(C)(CNC(=O)C1CCC(CNC(=O)c2ccc(S(=O)(=O)NCCCCCN)cc2)CC1)CNC(C)(C)C(C)=NO (stereo not shown) [Compound 8]" endpoint_unit="% ID" test_value=1.06
molecule="NCCCCCNS(=O)(=O)c1ccc(C(=O)NCCCNC(=O)c2ccc(NN)nc2)cc1 [Compound 24]" endpoint_unit="% ID" test_value=1.4
molecule="CC(=NO)C(C)(C)NCC(C)(CNC(=O)c1ccc(S(=O)(=O)NCCCCCN)cc1)CNC(C)(C)C(C)=NO (stereo not shown) [Compound 3]" endpoint_unit="% ID" test_value=0.57

Can you look up the measured % ID Kidney of CC(=NO)C(C)(C)NCCN(CCNC(=O)c1ccc(S(=O)(=O)NCCCCCN)cc1)CCNC(C)(C)C(C)=NO [Compound 16] for me?
1.80

Fill in: % ID Kidney of CC(CNCc1ccccc1O)(CNCc1ccccc1O)CNC(=O)c1ccc(S(=O)(=O)NCCCCCN)cc1 [Compound 25] is ___
4.24

Which measured % ID Kidney value corresponds to CC(=NO)C(C)(C)NCCN(CCNC(=O)C1CCC(CNC(=O)c2ccc(S(=O)(=O)NCCCCCN)cc2)CC1)CCNC(C)(C)C(C)=NO (stereo not shown) [Compound 17] ?
3.77

State the recorded % ID Kidney for this entry: CC(=NO)C(C)(C)NCC(C)(CNC(=O)CCCCCN)CNC(C)(C)C(C)=NO (stereo not shown) [Compound 4]
1.49
